Target: Histamine H2 receptor (Cavia porcellus)
Assay: Histamine H2 receptor antagonistic activity was evaluated in guinea pig atrium.
Format: functional, tissue-based
Conditions: Cardiac atrium
Examples of compounds with documented Kb follow.
Respond numerically; units are nM and should not be typed.

CCNc1cc(-c2c[nH]c(CC/N=C(\S)NC)n2)ccn1: 550
CCNc1cc(-c2n[nH]c(CC/N=C(\S)NC)n2)ccn1: 690
Cc1ncc(-c2csc(N=C(N)N)n2)[nH]1 [ZALTIDINE]: 18
CNC(=C[N+](=O)[O-])NCCSCc1ccc(CN(C)C)o1: 166

Please look at the following compound next.
Note Kb for the compound shown: `CCNc1cc(-c2n[nH]c(CC/N=C(/NC)NC#N)n2)ccn1`
1240
